Biological target: CSNK1G3 (human)
pIC50: −log10 of the molar value.
quantity measured: pIC50

Form field: reported pIC50 of CN1CC[C@H](c2c(O)cc(O)c3c(=O)cc(-c4ccccc4Cl)oc23)[C@H](O)C1
< 5.00

====

Target: CDKL2 (human) (UniProt Q92772)
Sequence (Q92772 whole entry, looked up): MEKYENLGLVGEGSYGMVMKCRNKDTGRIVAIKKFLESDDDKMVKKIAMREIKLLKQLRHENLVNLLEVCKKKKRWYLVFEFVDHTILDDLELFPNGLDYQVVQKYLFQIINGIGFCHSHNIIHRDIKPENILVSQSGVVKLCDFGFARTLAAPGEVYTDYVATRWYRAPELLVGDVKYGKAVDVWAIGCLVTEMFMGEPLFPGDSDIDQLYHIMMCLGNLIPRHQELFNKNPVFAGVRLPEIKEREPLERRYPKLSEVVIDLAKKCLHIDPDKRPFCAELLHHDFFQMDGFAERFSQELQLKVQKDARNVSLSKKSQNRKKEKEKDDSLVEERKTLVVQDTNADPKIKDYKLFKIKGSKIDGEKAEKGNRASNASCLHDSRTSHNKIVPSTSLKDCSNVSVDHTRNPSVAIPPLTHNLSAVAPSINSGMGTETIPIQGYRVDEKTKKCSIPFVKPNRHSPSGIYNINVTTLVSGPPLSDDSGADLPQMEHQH
quantity measured: IC50

Form field: reported IC50 of CN1CC[C@H](c2c(O)cc(O)c3c(=O)cc(-c4ccccc4Cl)oc23)[C@H](O)C1
> 10 µM

====

Molecular target: TESK1 (human) (UniProt Q15569)
Sequence (Q15569 whole entry, looked up): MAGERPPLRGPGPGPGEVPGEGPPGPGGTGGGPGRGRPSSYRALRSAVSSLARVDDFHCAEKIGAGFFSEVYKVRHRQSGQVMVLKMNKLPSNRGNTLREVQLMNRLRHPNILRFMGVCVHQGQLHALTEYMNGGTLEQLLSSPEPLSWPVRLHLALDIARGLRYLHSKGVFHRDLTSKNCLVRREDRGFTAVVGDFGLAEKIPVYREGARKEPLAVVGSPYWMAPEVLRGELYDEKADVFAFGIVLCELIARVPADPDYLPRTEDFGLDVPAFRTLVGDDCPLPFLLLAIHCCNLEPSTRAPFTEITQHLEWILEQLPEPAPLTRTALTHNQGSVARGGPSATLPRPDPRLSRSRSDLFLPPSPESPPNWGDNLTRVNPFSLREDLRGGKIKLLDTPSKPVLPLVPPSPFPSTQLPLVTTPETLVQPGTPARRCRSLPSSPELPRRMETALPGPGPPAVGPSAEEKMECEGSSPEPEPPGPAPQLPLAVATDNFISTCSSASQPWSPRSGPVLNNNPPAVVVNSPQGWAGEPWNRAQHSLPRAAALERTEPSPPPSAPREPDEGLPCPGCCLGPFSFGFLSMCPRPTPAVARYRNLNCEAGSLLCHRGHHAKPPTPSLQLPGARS
pIC50: −log10 of the molar value.
quantity measured: pIC50

Form field: reported pIC50 of CN1CC[C@H](c2c(O)cc(O)c3c(=O)cc(-c4ccccc4Cl)oc23)[C@H](O)C1
< 5.00
